target desc: T1, MAGE-A4 peptide on HLA-A*02:01 (human)
T1 peptide: GVYDGREHTV
experiment description: multimer staining
measured metric: binding result

The recorded binding result for entry PN45546 (TCR, V domains shown, full-length chains on transfected CHO cells; also called TCR No. 53) V domain 1: AQTVTQSQPEMSVQEAETVTLSCTYDTSESDYYLFWYKQPPSRQMILVIRQEAYKQQNATENRFSVNFQKAAKSFSLKISDSQLGDAAMYFCAYRSGAGGTSYGKLTFGQGTILTVHP V domain 2: DAGVTQSPTHLIKTRGQQVTLRCSPISGHKSVSWYQQVLGQGPQFIFQYYEKEERGRGNFPDRFSARQFPNYSSELNVNALLLGDSALYLCASSIRDTYGYTFGSGTRLTVV equals recognises

The recorded binding result for entry PN45539 (TCR, V domains shown, stained with anti-mouse TCR constant region H57-597; full-length chains on transfected CHO cells; also called TCR No. 41) V domain 1: DAKTTQPPSMDCAEGRAANLPCNHSTISGNEYVYWYRQIHSQGPQYIIHGLKNNETNEMASLIITEDRKSSTLILPHATLRDTAVYYCIVRPYNAGNNRKLIWGLGTSLAVNP V domain 2: DVKVTQSSRYLVKRTGEKVFLECVQDMDHENMFWYRQDPGLGLRLIYFSYDVKMKEKGDIPEGYSVSREKKERFSLILESASTNQTSMYLCASSFEGGYYGYTFGSGTRLTVV equals recognises

The recorded binding result for entry PN45418 (TCR, V domains shown, stained with anti-mouse TCR constant region H57-597; full-length chains on transfected CHO cells; also called TCR No. 46) V domain 1: EDQVTQSPEALRLQEGESSSLNCSYTVSGLRGLFWYRQDPGKGPEFLFTLYSAGEEKEKERLKATLTKKESFLHITAPKPEDSATYLCAVQPSYSGAGSYQLTFGKGTKLSVIP V domain 2: EAQVTQNPRYLITVTGKKLTVTCSQNMNHEYMSWYRQDPGLGLRQIYYSMNVEVTDKGDVPEGYKVSRKEKRNFPLILESPSPNQTSLYFCASSPGTGGFSPLHFGNGTRLTVT equals recognises
